Biological target: T1, full-length untagged human GPNMB expressed on cells (human, UniProt Q14956 23-572)
T1 sequence: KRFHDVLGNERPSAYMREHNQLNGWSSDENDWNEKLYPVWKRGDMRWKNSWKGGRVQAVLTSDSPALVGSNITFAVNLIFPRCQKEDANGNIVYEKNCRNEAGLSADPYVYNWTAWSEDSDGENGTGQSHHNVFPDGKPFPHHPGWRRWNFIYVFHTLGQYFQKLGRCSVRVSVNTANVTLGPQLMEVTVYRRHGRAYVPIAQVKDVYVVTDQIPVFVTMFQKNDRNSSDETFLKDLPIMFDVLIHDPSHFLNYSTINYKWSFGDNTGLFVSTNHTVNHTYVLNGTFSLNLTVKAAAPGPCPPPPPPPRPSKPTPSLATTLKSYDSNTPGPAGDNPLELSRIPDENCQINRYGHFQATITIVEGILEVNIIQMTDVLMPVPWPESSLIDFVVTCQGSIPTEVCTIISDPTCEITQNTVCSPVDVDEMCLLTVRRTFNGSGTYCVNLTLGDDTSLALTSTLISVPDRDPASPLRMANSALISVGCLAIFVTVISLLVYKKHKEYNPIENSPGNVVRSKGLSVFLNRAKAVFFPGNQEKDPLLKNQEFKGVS
Assay: cell-based or functional assay
result.type: Fold Increase PDL1 (max response at 1 µg/ml) (fold)
Quick note: give the figure in fold, leave out the unit.

Use the examples below as a reference point.
| binder | measure.unit | reported.result |
| --- | --- | --- |
| anti-GPNMB antibody GPN-98 (antibody, V domains shown) VH: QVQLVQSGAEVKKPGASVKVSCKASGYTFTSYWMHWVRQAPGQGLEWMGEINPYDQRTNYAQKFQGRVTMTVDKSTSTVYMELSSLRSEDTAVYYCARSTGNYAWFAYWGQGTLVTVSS VL: DIVMTQSPDSLAVSLGERATINCKASQDVSPSLAWYQQKPGQPPKLLIYSASYRYTGVPDRFSGSGSGTDFTLTISSLQAEDVAVYYCQQHYSIPLTFGGGTKVEIK | fold | 1.97 |
| anti-GPNMB antibody GPN-87 (antibody, V domains shown) VH: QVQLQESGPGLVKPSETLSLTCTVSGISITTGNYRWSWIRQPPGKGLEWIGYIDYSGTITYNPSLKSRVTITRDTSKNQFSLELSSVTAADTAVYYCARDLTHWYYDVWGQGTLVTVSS VL: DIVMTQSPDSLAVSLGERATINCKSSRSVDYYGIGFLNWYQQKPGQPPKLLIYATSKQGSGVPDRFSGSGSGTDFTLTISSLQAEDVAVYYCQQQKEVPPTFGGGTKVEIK | fold | 4.4 |
| anti-GPNMB antibody GPN-95 (antibody, V domains shown, also called PGN-95) VH: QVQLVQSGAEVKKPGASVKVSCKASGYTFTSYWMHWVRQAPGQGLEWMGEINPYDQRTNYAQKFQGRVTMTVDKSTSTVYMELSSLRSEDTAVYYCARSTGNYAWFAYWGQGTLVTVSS VL: DIVMTQSPDSLAVSLGERATINCKTSQDVSPSLAWYQQKPGQPPKLLIYSARYRYTGVPDRFSGSGSGTDFTLTISSLQAEDVAVYYCQQHYSIPLQFGGGTKVEIK | fold | 1.97 |
| anti-GPNMB antibody GPN-89 (antibody, V domains shown) VH: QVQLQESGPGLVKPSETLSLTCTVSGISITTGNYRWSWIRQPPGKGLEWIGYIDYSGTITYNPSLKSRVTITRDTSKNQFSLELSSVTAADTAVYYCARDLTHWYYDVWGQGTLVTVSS VL: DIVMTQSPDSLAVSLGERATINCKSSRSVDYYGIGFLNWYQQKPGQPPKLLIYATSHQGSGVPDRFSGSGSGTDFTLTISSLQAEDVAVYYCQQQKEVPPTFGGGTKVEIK | fold | 4.22 |

*Q* Reported Fold Increase PDL1 (max response at 1 µg/ml) for anti-GPNMB antibody GPN-96 (antibody, V domains shown) VH: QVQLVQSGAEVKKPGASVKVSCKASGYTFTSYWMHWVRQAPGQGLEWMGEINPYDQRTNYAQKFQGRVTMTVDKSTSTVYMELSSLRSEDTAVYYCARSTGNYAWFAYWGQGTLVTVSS VL: DIVMTQSPDSLAVSLGERATINCKASQDVSPSLAWYQQKPGQPPKLLIYRASYRYTGVPDRFSGSGSGTDFTLTISSLQAEDVAVYYCQQHYSIPLTFGGGTKVEIK : what is it?
*A* 1.9
